Target: human somatostatin receptor subtype sst4 (Homo sapiens, UniProt P31391)
Construct: expressed in transfected cells; host or cells: CHO cells (membranes)
Sequence (P31391 whole entry): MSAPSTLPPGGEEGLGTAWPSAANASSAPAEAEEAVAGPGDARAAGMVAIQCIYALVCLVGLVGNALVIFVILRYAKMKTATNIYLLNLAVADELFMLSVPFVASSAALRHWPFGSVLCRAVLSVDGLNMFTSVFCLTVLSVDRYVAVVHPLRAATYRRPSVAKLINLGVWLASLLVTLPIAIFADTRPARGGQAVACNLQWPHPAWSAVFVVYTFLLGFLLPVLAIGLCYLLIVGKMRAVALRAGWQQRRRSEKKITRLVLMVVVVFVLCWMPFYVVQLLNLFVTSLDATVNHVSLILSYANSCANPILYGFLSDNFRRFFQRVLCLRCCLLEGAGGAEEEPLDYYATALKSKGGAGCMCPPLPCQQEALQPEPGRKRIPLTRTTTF
Assay: Competition binding with 125I-LTT-SRIF-28, CHO cell membranes, sst4
Settings: bound only; read-out: Ki values for the sst4
In this section, each of the compounds is paired with its reported Ki.

Some solved cases for reference:
# compound, Ki
measured = [
    ("Cc1ccc(S(=O)(=O)N[C@@H](CCNC(=N)N)COCc2ccccc2)c2ccccc12", "< 300 nM"),
    ("Cc1ccc(S(=O)(=O)N[C@@H](CCCN)COCc2ccc(F)cc2)c2ccccc12", "< 300 nM"),
    ("Cc1ccc(S(=O)(=O)NC(CNCc2ccccc2)C2CCNCC2)c2ccccc12 (centres unmarked)", "< 300 nM"),
]

For `Cc1ccc(S(=O)(=O)N[C@@H](CCCNC(C)C)COc2ccccc2)c2ccccc12` , write its Ki.
< 300 nM

For `Cc1ccc(S(=O)(=O)N[C@@H](CCCN)COCC(C)C)c2ccccc12` , write its Ki.
< 300 nM

For `Cc1ccc(S(=O)(=O)N[C@@H](CCCN)CNCc2ccccc2)c2ccccc12` , write its Ki.
< 300 nM

For `Cc1ccc(S(=O)(=O)N[C@@H](CCCN)CSc2ccccc2)c2ccccc12` , write its Ki.
< 300 nM

For `Cc1ccc(S(=O)(=O)N[C@@H](CCCN)COc2ccsc2)c2ccccc12` , write its Ki.
< 300 nM

For `Cc1ccc(S(=O)(=O)N[C@H](COCc2ccccc2)C(=O)NCCN)c2ccccc12` , write its Ki.
< 300 nM

For `Cc1ccc(S(=O)(=O)N[C@@H](CCCN)COCc2c(F)c(F)c(F)c(F)c2F)c2ccccc12` , write its Ki.
< 300 nM

Data origin: patent US20100048549A1
